# Test system: HT-1080
# Protocol notes: Inhibition of ERK phosphorylation in human HT-1080 cells at 20 uM after 15 mins by Western blotting analysis
Calls of active or inactive are those of the source. The rule behind the calls is not given here.
Answer with one of the outcomes class 1 = active, class 0 = inactive

Record excerpt, results attached:
Smiles data: CN1CCN(c2ccc(NC(=N)c3cc4c(-c5ccccc5)n[nH]c4c(NC4CCCCC4)n3)cc2)CC1
Category: class 1
//
Smiles data: COc1ccc(Cn2nc(-c3ccccc3)c3cc(C(=N)Nc4ccc(N5CCN(C)CC5)cc4)nc(N4CCOCC4)c32)cc1
Category: class 1
//
Smiles data: COc1ccc(Cn2nc(-c3ccccc3)c3cc(C(=N)Nc4ccc(N5CCN(C)CC5)cc4)ncc32)cc1
Category: class 1

Which result was noted for this molecule in the test: `COc1ccc(Cn2cc3cc(C(=N)Nc4ccccc4)ncc3n2)cc1`
class 0

Thanks! And `COc1ccc(Cn2nc(-c3ccccc3)c3cc(C(=N)Nc4ccc(N5CCN(C)CC5)cc4)nc(Nc4cc(OC)c(OC)c(OC)c4)c32)cc1` ?
class 1

Thanks! And `COc1ccc(Cn2nc(-c3ccccc3)c3cc(C(=N)Nc4ccc(N5CCN(C)CC5)cc4)nc(NC4CCCCC4)c32)cc1` ?
class 1

###

# Tested on: PC-3
# Protocol notes: Cytotoxicity against human PC-3 cells assessed as reduction in cell viability incubated for 72 hrs by MTT assay
# Format: functional, cell-based
# Condition parameters: PC-3, 72 h
pIC50: −log10 of the molar value. Counter-ions that a name gives are not always drawn.
Please enter y where pIC50 is greater than or equal to 5, and n where it is lower.

Record excerpt, results attached:
Compound: N=C(Nc1ccccc1)c1cc2c(-c3ccccc3)n[nH]c2c(N2CCOCC2)n1
Category: y
//
Compound: CN1CCN(c2ccc(NC(=N)c3cc4cn[nH]c4cn3)cc2)CC1
Category: n
//
Compound: COc1cccc2c1C(=O)c1c(O)c3c(c(O)c1C2=O)C[C@@](O)(C(=O)CO)C[C@@H]3O[C@H]1C[C@H](N)[C@H](O)[C@H](C)O1 [DOXORUBICIN HYDROCHLORIDE]
Category: y

Does `N=C(Nc1cccc(C(F)(F)F)c1)c1cc2c(-c3ccccc3)n[nH]c2c(N2CCOCC2)n1` have a reported pIC50 of at least 5?
n

Thanks! And `COc1ccc(Cn2nc(-c3ccccc3)c3cc(C(=N)Nc4ccc(N5CCN(C)CC5)cc4)nc(NC4CCCCC4)c32)cc1` ?
y

Thanks! And `Cn1ncc2cc(C(=N)Nc3cccc(C(F)(F)F)c3)ncc21` ?
n

Thanks! And `COc1ccc(Cn2nc(-c3ccccc3)c3cc(C(=N)Nc4ccccc4)ncc32)cc1` ?
y

###

Measured pIC50 by item
# Test system: HT-1080
# Protocol notes: Cytotoxicity against human HT-1080 cells assessed as reduction in cell viability incubated for 72 hrs by MTT assay
# Type: functional, cell-based
# Condition parameters: HT-1080, 72 h
pIC50 is a log-scale quantity: -log10 of the concentration expressed in molar.

Recorded results for 3 compounds are shown here.
Smiles data: CN1CCN(c2ccc(NC(=N)c3cc4c(-c5ccccc5)n[nH]c4c(N4CCOCC4)n3)cc2)CC1
pIC50: 5.25
--
Smiles data: Cn1ncc2cc(C(=N)Nc3cccc(C(F)(F)F)c3)ncc21
pIC50: 4.47
--
Smiles data: COc1ccc(Cn2cc3cc(C(=N)Nc4cccc(C(F)(F)F)c4)ncc3n2)cc1
pIC50: 4.89

// query pIC50 value for entry `COc1ccc(Cn2nc(-c3ccccc3)c3cc(C(=N)Nc4ccc(N5CCN(C)CC5)cc4)nc(N4CCOCC4)c32)cc1`
6.15

###

# Tested on: PC-3
# Protocol notes: Cytotoxicity against human PC-3 cells assessed as reduction in cell viability incubated for 72 hrs by MTT assay
# Assay type: functional, cell-based
# Condition parameters: PC-3, 72 h
Observed property: IC50 (µM)
Response body: numeric value in µM, unit text excluded.

Smiles data: COc1ccc(Cn2ncc3cc(C(=N)Nc4cccc(C(F)(F)F)c4)ncc32)cc1
IC50 [µM]: 27.6

Smiles data: COc1cc(Nc2nc(C(=N)Nc3ccc(N4CCN(C)CC4)cc3)cc3c(-c4ccccc4)n[nH]c23)cc(OC)c1OC
IC50 [µM]: 4.3

Smiles data: COc1ccc(Cn2nc(-c3ccccc3)c3cc(C(=N)Nc4ccc(N5CCN(C)CC5)cc4)ncc32)cc1
IC50 [µM]: 3.99

Smiles data: COc1ccc(Cn2ncc3cc(C(=N)Nc4ccc(N5CCN(C)CC5)cc4)ncc32)cc1
IC50 [µM]: 6.1

Smiles data: CN1CCN(c2ccc(NC(=N)c3cc4c(-c5ccccc5)n[nH]c4cn3)cc2)CC1
IC50 [µM]: 17.1

Smiles data: CN1CCN(c2ccc(NC(=N)c3cc4c(-c5ccccc5)n[nH]c4c(NC4CCCCC4)n3)cc2)CC1
IC50 [µM]: 4.63

Smiles data: CN1CCN(c2ccc(NC(=N)c3cc4cn(C)nc4cn3)cc2)CC1
IC50 [µM]: 24.8

Smiles data: N=C(Nc1cccc(C(F)(F)F)c1)c1cc2c(-c3ccccc3)n[nH]c2cn1
IC50 [µM]: 19.9

Proceed to the following item.
// query IC50 value for entry `Cn1nc(-c2ccccc2)c2cc(C(=N)Nc3ccccc3)ncc21`
17.3

###

# Tested on: PC-3
# Protocol notes: Cytotoxicity against human PC-3 cells assessed as reduction in cell viability incubated for 72 hrs by MTT assay
# Format: functional, cell-based
# Condition parameters: PC-3, 72 h
Observed property: pIC50
pIC50 is a log-scale quantity: -log10 of the concentration expressed in molar.

Recorded results for 3 compounds are shown here.
Smiles data: COc1cc(Nc2nc(C(=N)Nc3ccccc3)cc3c(-c4ccccc4)n[nH]c23)cc(OC)c1OC
Target of assay: PC-3
Reported value: 5.24
--
Smiles data: N=C(Nc1ccccc1)c1cc2c(-c3ccccc3)n[nH]c2c(NC2CCCCC2)n1
Target of assay: PC-3
Reported value: 5.76
--
Smiles data: Cn1nc(-c2ccccc2)c2cc(C(=N)Nc3cccc(C(F)(F)F)c3)ncc21
Target of assay: PC-3
Reported value: 4.68

Proceed to the following item.
// query pIC50 value for entry `N=C(Nc1cccc(C(F)(F)F)c1)c1cc2c(-c3ccccc3)n[nH]c2c(NC2CCCCC2)n1`
4.60

###

# Tested on: PC-3
# Protocol notes: Cytotoxicity against human PC-3 cells assessed as reduction in cell viability incubated for 72 hrs by MTT assay
# Assay type: functional, cell-based
# Condition parameters: PC-3, 72 h
Observed property: pIC50
pIC50 is a log-scale quantity: -log10 of the concentration expressed in molar.

Recorded results for 6 compounds are shown here.
Smiles data: COc1ccc(Cn2nc(-c3ccccc3)c3cc(C(=N)Nc4ccccc4)nc(N4CCOCC4)c32)cc1
Reported value: 4.79
//
Smiles data: COc1ccc(Cn2nc(-c3ccccc3)c3cc(C(=N)Nc4ccccc4)nc(NC4CCCCC4)c32)cc1
Reported value: 5.96
//
Smiles data: CN1CCN(c2ccc(NC(=N)c3cc4cnn(C)c4cn3)cc2)CC1
Reported value: 4.49
//
Smiles data: COc1ccc(Cn2cc3cc(C(=N)Nc4ccccc4)ncc3n2)cc1
Reported value: 5.69
//
Smiles data: CN1CCN(c2ccc(NC(=N)c3cc4c(-c5ccccc5)n[nH]c4c(N4CCOCC4)n3)cc2)CC1
Reported value: 5.08
//
Smiles data: COc1ccc(Cn2nc(-c3ccccc3)c3cc(C(=N)Nc4ccc(N5CCN(C)CC5)cc4)nc(N4CCOCC4)c32)cc1
Reported value: 5.34

// query pIC50 value for entry `CN1CCN(c2ccc(NC(=N)c3cc4c(-c5ccccc5)nn(C)c4cn3)cc2)CC1`
5.23

Thanks! And `COc1cc(Nc2nc(C(=N)Nc3cccc(C(F)(F)F)c3)cc3c(-c4ccccc4)n[nH]c23)cc(OC)c1OC` ?
4.86

Thanks! And `N=C(Nc1ccccc1)c1cc2c(-c3ccccc3)n[nH]c2cn1` ?
4.64

Thanks! And `COc1ccc(Cn2ncc3cc(C(=N)Nc4ccccc4)ncc32)cc1` ?
4.44

Thanks! And `COc1ccc(Cn2nc(-c3ccccc3)c3cc(C(=N)Nc4ccc(N5CCN(C)CC5)cc4)nc(Nc4cc(OC)c(OC)c(OC)c4)c32)cc1` ?
5.91

Thanks! And `COc1ccc(Cn2cc3cc(C(=N)Nc4cccc(C(F)(F)F)c4)ncc3n2)cc1` ?
4.89

###

# Tested on: HT-1080
# Protocol notes: Cytotoxicity against human HT-1080 cells assessed as reduction in cell viability incubated for 72 hrs by MTT assay
# Assay type: functional, cell-based
# Condition parameters: HT-1080, 72 h
Observed property: IC50 (µM)
Response body: numeric value in µM, unit text excluded.

Recorded results for 4 compounds are shown here.
Smiles data: COc1ccc(Cn2nc(-c3ccccc3)c3cc(C(=N)Nc4ccccc4)nc(NC4CCCCC4)c32)cc1
Reported value: 3.4
//
Smiles data: Cn1nc(-c2ccccc2)c2cc(C(=N)Nc3cccc(C(F)(F)F)c3)ncc21
Reported value: 17.8
//
Smiles data: N=C(Nc1ccccc1)c1cc2c(-c3ccccc3)n[nH]c2cn1
Reported value: 22
//
Smiles data: COc1ccc(Cn2nc(-c3ccccc3)c3cc(C(=N)Nc4ccccc4)nc(N4CCOCC4)c32)cc1
Reported value: 6.2

Proceed to the following item.
// query IC50 value for entry `COc1ccc(Cn2cc3cc(C(=N)Nc4ccccc4)ncc3n2)cc1`
1.13
